Value source: ChEMBL document CHEMBL1154782

Tested on: Candida albicans
Assay: Antifungal activity against Candida albicans ATCC 10231 after 15 to 18 hrs under aerobic condition by modified broth microdilution method
Type: functional
Where a SMILES comes first, the peptide text is derived from it. The star is where a group is joined. Boc = CC(C)(C)OC(=O)*
Kindly state MIC for each of the entries shown.

COC(=O)[C@H](CCCNC(=N)N)NC(=O)[C@H](Cc1c[nH]cn1)NC(=O)OC(C)(C)C (Boc-His-Arg-OMe)	> 200 µg/mL
CC(C)(C)OC(=O)N[C@@H](Cc1c[nH]c2ccccc12)C(=O)N[C@@H](Cc1c[nH]c(C(C)(C)C)n1)C(=O)NCc1ccccc1	> 200 µg/mL
COC(=O)[C@H](CCCNC(=N)N)NC(=O)[C@H](Cc1c[nH]c(C(C)(C)C)n1)NC(=O)OC(C)(C)C	> 200 µg/mL
COC(=O)[C@H](CCCNC(=N)N)NC(=O)[C@H](Cc1c[nH]c(C2CCC2)n1)NC(=O)OC(C)(C)C	> 200 µg/mL
CC(C)c1nc(C[C@H](N)C(=O)N[C@@H](CCCNC(=N)N)C(=O)NCc2ccccc2)c[nH]1	> 200 µg/mL

Each of the following entries comes with a recorded value; kindly state MIC for each.
1. COC(=O)[C@H](Cc1c[nH]c(C(C)(C)C)n1)NC(=O)[C@@H](N)Cc1c[nH]c2ccccc12
2. CC(C)(C)c1nc(C[C@H](NC(=O)[C@@H](N)Cc2c[nH]c3ccccc23)C(=O)NCc2ccccc2)c[nH]1

A.
1. > 200 µg/mL
2. > 200 µg/mL
